Please provide measured viability, T/C for the entries that follow.
- System: K12877-001-R-J1-PDC complex spheroid viability;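 note: tumour cells co-cultured with HUVEC and mesenchymal stem cells in spheroids; spheroids exposed to agents for one week before readout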
- protocol: Anticancer human tumor K12877-001-R-J1-PDC patient-derived lung adenocarcinoma cell line growth inhibition [RAS]
- cond: second compound 0.0316 µM; first compound 0.00316 µM; stronger effect = lower value
Expressed in %, but write only the number.

Challenge: Dear colleague, I am looking for the recorded viability, T/C of the following compound: CCN1CCN(Cc2ccc(Nc3ncc(F)c(-c4cc(F)c5nc(C)n(C(C)C)c5c4)n3)nc2)CC1 + C#Cc1c(F)ccc2cc(O)cc(-c3ncc4c(N5CC6CCC(C5)N6)nc(OCC56CCCN5CC(F)C6)nc4c3F)c12
Response given: 106

Challenge: Dear colleague, I am looking for the recorded viability, T/C of the following compound: CCN1CCN(Cc2ccc(Nc3ncc(F)c(-c4cc(F)c5nc(C)n(C(C)C)c5c4)n3)nc2)CC1 + C=CC(=O)N1CCN(c2nc(OCC3CCCN3C)nc3c(F)c(-c4nc(N)cc(C)c4C(F)(F)F)c(Cl)cc23)C(C)C1
Response given: 96.4

Challenge: Dear colleague, I am looking for the recorded viability, T/C of the following compound: O=C(c1ccc(F)c(F)c1Nc1ccc(I)cc1F)N1CC(O)([C@@H]2CCCCN2)C1 + C#Cc1c(F)ccc2cc(O)cc(-c3ncc4c(N5CC6CCC(C5)N6)nc(OCC56CCCN5CC(F)C6)nc4c3F)c12
Response given: 119

Challenge: Dear colleague, I am looking for the recorded viability, T/C of the following compound: C=CC(=O)Nc1cc(Nc2nccc(-c3cn(C)c4ccccc34)n2)c(OC)cc1N(C)CCN(C)C + C#Cc1c(F)ccc2cc(O)cc(-c3ncc4c(N5CC6CCC(C5)N6)nc(OCC56CCCN5CC(F)C6)nc4c3F)c12
Response given: 95.4

Challenge: Dear colleague, I am looking for the recorded viability, T/C of the following compound: CC(C)n1nc(-c2ccc3oc(N)nc3c2)c2c(N)ncnc21 + C#Cc1c(F)ccc2cc(O)cc(-c3ncc4c(N5CC6CCC(C5)N6)nc(OCC56CCCN5CC(F)C6)nc4c3F)c12
Response given: 83
